Values were extracted from ChEMBL document CHEMBL2163291.

# Test system: A549
# assay_text: Cell cycle arrest in human A549 cells assessed as accumulation at G2 phase at 80 uM after 48 hrs by FACS flow cytometry (reference value: 9.39 %)
# Format: functional
Listed below: Activity values for each entry.

| smiles_data | Activity, % |
| --- | --- |
| CCOC(=O)[C@@H](CO)NC(=O)c1cc(-c2ccccc2)nn1Cc1ccccc1 | 8.08 |
| CCOC(=O)CNC(=O)c1cc(-c2ccc(Cl)cc2)nn1Cc1ccccc1 | 8.57 |
| CCOC(=O)[C@@H](CO)NC(=O)c1cc(-c2ccccc2)nn1Cc1ccc(C(C)(C)C)cc1 | 6.06 |
| CCOC(=O)CNC(=O)c1cc(-c2ccc(Cl)cc2)nn1Cc1ccc(C(C)(C)C)cc1 | 4.04 |
| CCOC(=O)[C@@H](CO)NC(=O)c1cc(-c2ccc(Cl)cc2)nn1Cc1ccccc1 | 0.69 |
| CCOC(=O)[C@@H](CS)NC(=O)c1cc(-c2ccc(Cl)cc2)nn1Cc1ccccc1 | 7.25 |
| CCOC(=O)[C@@H](CO)NC(=O)c1cc(-c2ccc(Cl)cc2)nn1Cc1ccc(C(C)(C)C)cc1 | 0.92 |
